# METHOD_SUMMARY: self-splicing fitness, log relative to wild type (ln ratio); higher = more splicing; Tetrahymena group I intron in knt gene, E. coli kanamycin selection, DiMSum; sequences stand for … in CUCUCU…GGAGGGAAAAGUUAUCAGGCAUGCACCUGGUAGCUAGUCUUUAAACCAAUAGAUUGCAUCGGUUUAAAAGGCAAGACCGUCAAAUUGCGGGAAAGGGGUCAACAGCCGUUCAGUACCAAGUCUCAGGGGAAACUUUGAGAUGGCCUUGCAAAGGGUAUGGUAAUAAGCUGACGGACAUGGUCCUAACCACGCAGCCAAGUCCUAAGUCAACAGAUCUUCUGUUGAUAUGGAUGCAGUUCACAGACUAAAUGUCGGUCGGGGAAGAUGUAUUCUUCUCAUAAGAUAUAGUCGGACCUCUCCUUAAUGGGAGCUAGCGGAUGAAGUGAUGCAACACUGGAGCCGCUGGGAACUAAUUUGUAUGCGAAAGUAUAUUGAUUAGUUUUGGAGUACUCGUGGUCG;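 note: selection with 25 µg/mL kanamycin versus none on LB agar overnight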
# APPLIED_CONDITIONS: 30 °C
just bin them by self-splicing fitness (ln): low group: < -3; middle group: ≥ -3 and < -2; high group: ≥ -2

Form field 'band' for UGCCAGCAAUAUUACGGUUU
high group

Form field 'band' for GAACAGCAAUAUUACGACGC
high group

Form field 'band' for GAGAAGCAAUAUUACGCUUG
middle group

Form field 'band' for AGAAAGCAAUAUUACGAGGA
low group

Form field 'band' for GGUUAGCAAUAUUACGUAUG
low group

Form field 'band' for GAAAAGCAAUAUUACGCCUU
high group

Form field 'band' for CGCUAGCAAUAUUACGUUGU
low group

Form field 'band' for AAGAAGCAAUAUUACGAACG
high group

Form field 'band' for CAGUAGCAAUAUUACGCCGG
high group

Form field 'band' for AACUAGCAAUAUUACGGAUC
high group

Form field 'band' for CCUUAGCAAUAUUACGAAAU
low group

Form field 'band' for GUGAAGCAAUAUUACGUUGA
high group

Form field 'band' for CACGAGCAAUAUUACGGUCU
low group

Form field 'band' for CGGAAGCAAUAUUACGCAUG
high group

Form field 'band' for UUAAAGCAAUAUUACGAAAU
low group

Form field 'band' for UAGAAGCAAUAUUACGGCAA
high group

Form field 'band' for ACGUAGCAAUAUUACGGCAG
low group

Form field 'band' for CCUAAGCAAUAUUACGAGCG
high group

Form field 'band' for GUGAAGCAAUAUUACGGUAA
high group

Form field 'band' for AGGAAGCAAUAUUACGGUAG
low group

Form field 'band' for ACGAAGCAAUAUUACGUCUA
high group

Form field 'band' for GGCAAGCAAUAUUACGGGUU
high group

Form field 'band' for UUGCAGCAAUAUUACGAGGC
low group

Form field 'band' for GCCAAGCAAUAUUACGGGUU
middle group

Form field 'band' for UCUAAGCAAUAUUACGAUUC
low group

Form field 'band' for AAGGAGCAAUAUUACGUCUU
high group

Form field 'band' for GCCGAGCAAUAUUACGUCGA
middle group

Form field 'band' for GUCUAGCAAUAUUACGCUAA
high group

Form field 'band' for GCGCAGCAAUAUUACGGAAG
high group

Form field 'band' for GAACAGCAAUAUUACGCUUA
high group

Form field 'band' for GAAAAGCAAUAUUACGUCCU
high group

Form field 'band' for AUAGAGCAAUAUUACGCUGA
high group

Form field 'band' for UAUGAGCAAUAUUACGGUUA
high group

Form field 'band' for AGUUAGCAAUAUUACGAGUU
high group

Form field 'band' for AAUCAGCAAUAUUACGGACU
high group

Form field 'band' for GUUAAGCAAUAUUACGACGU
high group

Form field 'band' for ACGCAGCAAUAUUACGAGAA
high group

Form field 'band' for AUCUAGCAAUAUUACGUACA
high group

Form field 'band' for GAUAAGCAAUAUUACGUAAA
middle group

Form field 'band' for GGCUAGCAAUAUUACGAACU
high group

Form field 'band' for GCUUAGCAAUAUUACGAAAG
high group

Form field 'band' for CAUUAGCAAUAUUACGCGAA
middle group

Form field 'band' for UCCCAGCAAUAUUACGCAGC
low group

Form field 'band' for AUCUAGCAAUAUUACGGACU
high group

Form field 'band' for AGUGAGCAAUAUUACGAUAA
low group

Form field 'band' for UGCCAGCAAUAUUACGCGAU
middle group

Form field 'band' for AGUAAGCAAUAUUACGCGAA
middle group

Form field 'band' for GUCUAGCAAUAUUACGUUAA
high group

Form field 'band' for GUCAAGCAAUAUUACGAUCU
middle group

Form field 'band' for UAGGAGCAAUAUUACGAGAA
low group

Form field 'band' for UAGCAGCAAUAUUACGAGCC
middle group

Form field 'band' for UGGGAGCAAUAUUACGCUAA
middle group

Form field 'band' for GAGUAGCAAUAUUACGAGUU
middle group

Form field 'band' for UGCAAGCAAUAUUACGGCAA
high group

Form field 'band' for CGGAAGCAAUAUUACGAGAG
low group
